These measurements were taken from patent US11365202B2.

- Test system: P. falciparum 3D7
- Assay procedure: P. falciparum growth inhibition assay, 3D7 strain
- Type: cell-based
- Cond: Plasmodium falciparum, 3D7; chloroquine-sensitive strain, in vitro culture, 48 h; read-out: EC50 on P. falciparum 3D7
Value kind: EC50

// recorded EC50 for C[C@@H]1CC[C@H]2[C@@H](C)C(=O)O[C@@H]3O[C@@]4(C)CC[C@@H]1[C@]32OO4 [Artemisinin, reference compound] : ~27 nM

----------
- Tested on: P. berghei
- Assay procedure: In vivo parasiticidal assay with P. berghei mice malaria model
- Cond: 4 doses of 12.5 mg/Kg of body weight, infected BALB/c mice
Exercise: state measured Complete Protection - Mice with complete parasite clearance for each of the compounds provided.

// recorded Complete Protection - Mice with complete parasite clearance for CCOP(=O)(/C=C/C(NC(=O)[C@H](CC(C)C)NC(=O)[C@H](CO[C@H]1O[C@@H]2OC3(C)CC[C@H]4[C@H](C)CC[C@@H]([C@H]1C)[C@@]24OO3)NC(=O)OCc1ccccc1)c1ccccc1)OCC (stereo in doubt) : 100% of treated mice

// recorded Complete Protection - Mice with complete parasite clearance for C[C@@H]1CC[C@H]2[C@@H](C)C(=O)O[C@@H]3O[C@@]4(C)CC[C@@H]1[C@]32OO4 [Artemisinin, reference compound] : 0% of treated mice

// recorded Complete Protection - Mice with complete parasite clearance for CCOP(=O)(/C=C/C(NC(=O)[C@H](Cc1ccccc1)NC(=O)[C@H](CO[C@H]1O[C@@H]2O[C@@]3(C)CC[C@H]4[C@H](C)CC[C@@H]([C@H]1C)[C@@]24OO3)NC(=O)OCc1ccccc1)c1ccccc1)OCC (stereo partly shown) : 80% of treated mice

// recorded Complete Protection - Mice with complete parasite clearance for CCOP(=O)(/C=C/C(NC(=O)[C@H](CC(C)C)NC(=O)[C@@H]1C[C@@H](O[C@H]2O[C@@H]3OC4(C)CC[C@H]5[C@H](C)CC[C@@H]([C@H]2C)[C@@]35OO4)CN1C(=O)OCc1ccccc1)c1ccccc1)OCC (stereo in doubt) : 100% of treated mice
